# protocol.description: self-splicing fitness, log relative to wild type (ln ratio); higher = more splicing; Tetrahymena group I intron in knt gene, E. coli kanamycin selection, DiMSum; sequences stand for … in CUCUCU…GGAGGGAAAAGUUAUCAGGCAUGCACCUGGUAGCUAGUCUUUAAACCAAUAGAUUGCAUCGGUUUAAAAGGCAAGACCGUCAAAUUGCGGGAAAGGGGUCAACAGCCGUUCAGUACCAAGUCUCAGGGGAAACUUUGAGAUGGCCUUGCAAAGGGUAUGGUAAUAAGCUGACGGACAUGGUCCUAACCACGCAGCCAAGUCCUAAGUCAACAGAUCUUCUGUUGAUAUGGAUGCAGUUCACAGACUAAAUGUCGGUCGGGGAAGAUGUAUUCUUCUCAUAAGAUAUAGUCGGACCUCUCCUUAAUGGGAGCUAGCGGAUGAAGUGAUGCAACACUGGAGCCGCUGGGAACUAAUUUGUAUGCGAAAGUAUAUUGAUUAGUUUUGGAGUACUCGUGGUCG;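 also: selection with 25 µg/mL kanamycin versus none on LB agar overnight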
# protocol.conditions: 37 °C
measured.attribute: self-splicing fitness (ln)
Give the value as a plain number.

GAUCAGCAAUAUUACGAGAA: -1.16

Enquiry: For the sequence `UGGCAGCAAUAUUACGACGA` , what self-splicing fitness (ln) is on record?
Return: -0.159

Enquiry: Now the same for `UACCAGCAAUAUUACGCCUA`
Return: 0.659

Enquiry: Now the same for `ACCGAGCAAUAUUACGAUAC`
Return: -2.09

Enquiry: Now the same for `CUCCAGCAAUAUUACGGGUG`
Return: -1.53

Enquiry: Now the same for `GAACAGCAAUAUUACGGGAU`
Return: -1.05

Enquiry: Now the same for `CCAGAGCAAUAUUACGUUCG`
Return: -1.64

====

# protocol.description: self-splicing fitness, log relative to wild type (ln ratio); higher = more splicing; Tetrahymena group I intron in knt gene, E. coli kanamycin selection, DiMSum; sequences stand for … in CUCUCU…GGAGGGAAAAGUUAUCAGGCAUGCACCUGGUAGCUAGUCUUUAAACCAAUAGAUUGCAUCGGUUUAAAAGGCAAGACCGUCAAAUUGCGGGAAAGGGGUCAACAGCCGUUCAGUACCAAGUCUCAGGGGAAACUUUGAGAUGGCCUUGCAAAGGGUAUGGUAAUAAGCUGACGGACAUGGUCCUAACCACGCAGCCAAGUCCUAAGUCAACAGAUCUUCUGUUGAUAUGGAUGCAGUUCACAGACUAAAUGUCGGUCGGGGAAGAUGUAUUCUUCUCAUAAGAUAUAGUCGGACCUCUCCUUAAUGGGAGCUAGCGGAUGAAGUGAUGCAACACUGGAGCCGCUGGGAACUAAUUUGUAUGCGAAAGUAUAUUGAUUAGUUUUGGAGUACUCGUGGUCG
# protocol.conditions: 37 °C
Known self-splicing fitness (ln) of a selection of sequences

Example cases with answers are listed next.
GUAAAGCAAUAUUACGAAGG: -1.92
CGCAAGCAAUAUUACGAUAA: -1.51

Enquiry: For the sequence `ACGGAGCAAUAUUACGAUGC` , what self-splicing fitness (ln) is on record?
Return: -1.74

Enquiry: Now the same for `CAACAGCAAUAUUACGCCCG`
Return: 0.465

Enquiry: Now the same for `ACCAAGCAAUAUUACGUUUG`
Return: -2.43

Enquiry: Now the same for `CAGUAGCAAUAUUACGUUGU`
Return: -3.14

Enquiry: Now the same for `CCAUAGCAAUAUUACGUUAA`
Return: -3.04

Enquiry: Now the same for `CAACAGCAAUAUUACGAGGU`
Return: -2.24

Enquiry: Now the same for `CCGCAGCAAUAUUACGACCG`
Return: 0.229

Enquiry: Now the same for `CCGUAGCAAUAUUACGUUAA`
Return: -2.67

Enquiry: Now the same for `GCAUAGCAAUAUUACGAGCG`
Return: -1.05

Enquiry: Now the same for `CAGGAGCAAUAUUACGACCG`
Return: 0.00703

Enquiry: Now the same for `GAUUAGCAAUAUUACGGAAC`
Return: -1.7

Enquiry: Now the same for `GUGUAGCAAUAUUACGUGGA`
Return: -2.04

Enquiry: Now the same for `ACUUAGCAAUAUUACGAGUU`
Return: -0.552

Enquiry: Now the same for `GCUCAGCAAUAUUACGCGGG`
Return: -2.78

====

# protocol.description: self-splicing fitness, log relative to wild type (ln ratio); higher = more splicing; Tetrahymena group I intron in knt gene, E. coli kanamycin selection, DiMSum; sequences stand for … in CUCUCU…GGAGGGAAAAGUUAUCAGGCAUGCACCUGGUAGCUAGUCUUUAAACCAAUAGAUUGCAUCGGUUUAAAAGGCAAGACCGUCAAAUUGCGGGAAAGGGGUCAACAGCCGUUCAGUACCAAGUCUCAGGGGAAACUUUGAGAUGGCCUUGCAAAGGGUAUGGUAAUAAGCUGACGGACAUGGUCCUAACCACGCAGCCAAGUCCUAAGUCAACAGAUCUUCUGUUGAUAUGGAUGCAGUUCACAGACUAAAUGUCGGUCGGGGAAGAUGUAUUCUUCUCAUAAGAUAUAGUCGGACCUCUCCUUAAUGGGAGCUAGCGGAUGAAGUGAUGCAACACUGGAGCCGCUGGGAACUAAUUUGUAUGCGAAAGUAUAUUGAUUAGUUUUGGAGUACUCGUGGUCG
# protocol.conditions: 37 °C
measured.attribute: self-splicing fitness (ln)
Give the value as a plain number.

Example cases with answers are listed next.
UAUGAGCAAUAUUACGAGCU: -2.09
AGUGAGCAAUAUUACGUCCA: -1
CUGUAGCAAUAUUACGUGCG: -0.547
UUAGAGCAAUAUUACGCUGA: -0.656
CCCCAGCAAUAUUACGGAUU: -2.37
UAUUAGCAAUAUUACGGAAG: -1.9
GCUAAGCAAUAUUACGUCGA: -0.619
AGCGAGCAAUAUUACGAAUG: -2.2
UUUUAGCAAUAUUACGUGAA: -0.89
CUACAGCAAUAUUACGGAUU: -2.5

Enquiry: For the sequence `UACCAGCAAUAUUACGCGUU` , what self-splicing fitness (ln) is on record?
Return: -0.917

Enquiry: Now the same for `AUGUAGCAAUAUUACGGCCC`
Return: -0.359

Enquiry: Now the same for `GCACAGCAAUAUUACGCCGU`
Return: 0.145

Enquiry: Now the same for `GUGCAGCAAUAUUACGCCCU`
Return: -0.805

Enquiry: Now the same for `CAUAAGCAAUAUUACGCCUC`
Return: -1.75

Enquiry: Now the same for `ACUUAGCAAUAUUACGCACU`
Return: 0.532

Enquiry: Now the same for `UUUUAGCAAUAUUACGUGAG`
Return: -0.445

Enquiry: Now the same for `CAACAGCAAUAUUACGUACG`
Return: 0.194

====

# protocol.description: self-splicing fitness, log relative to wild type (ln ratio); higher = more splicing; Tetrahymena group I intron in knt gene, E. coli kanamycin selection, DiMSum; sequences stand for … in CUCUCU…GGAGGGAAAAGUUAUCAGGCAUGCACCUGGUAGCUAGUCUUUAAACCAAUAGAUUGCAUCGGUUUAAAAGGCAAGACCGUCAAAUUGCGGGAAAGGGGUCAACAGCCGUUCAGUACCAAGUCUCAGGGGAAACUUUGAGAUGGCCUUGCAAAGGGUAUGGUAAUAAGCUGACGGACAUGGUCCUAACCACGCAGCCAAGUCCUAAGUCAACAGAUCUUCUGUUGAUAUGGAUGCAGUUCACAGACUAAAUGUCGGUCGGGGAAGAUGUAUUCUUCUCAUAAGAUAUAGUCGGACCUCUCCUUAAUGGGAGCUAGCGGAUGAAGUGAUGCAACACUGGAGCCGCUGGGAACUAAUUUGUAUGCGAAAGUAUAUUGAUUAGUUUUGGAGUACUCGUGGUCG
# protocol.conditions: 30 °C
measured.attribute: self-splicing fitness (ln)
Give the value as a plain number.

Example cases with answers are listed next.
CCUAAGCAAUAUUACGCGGU: -2.54
AGCGAGCAAUAUUACGAGUG: -2.92
CCAGAGCAAUAUUACGUGCA: -1.88

Enquiry: For the sequence `GAUUAGCAAUAUUACGGGCU` , what self-splicing fitness (ln) is on record?
Return: -2.8

Enquiry: Now the same for `CACCAGCAAUAUUACGUUGU`
Return: -3.58

Enquiry: Now the same for `AUCCAGCAAUAUUACGUCCU`
Return: -1.47

Enquiry: Now the same for `GUGGAGCAAUAUUACGUGUU`
Return: -4.54

Enquiry: Now the same for `UGGGAGCAAUAUUACGCGCA`
Return: -1.66

Enquiry: Now the same for `AUUCAGCAAUAUUACGGCAC`
Return: -0.847

Source of measurements: the supplement of paper PMC7877785
